ASSAYED SYSTEM: T1, Human IL-11 (human, UniProt P20809 22-199)
T1 construct: Recombinant human IL-11 (GenScript Cat. No. Z03108-1) or IL-11 secreted by human cells; the mature form is said to have 178 residues; also called recombinant human IL-11; endogenously produced IL-11
T1 sequence: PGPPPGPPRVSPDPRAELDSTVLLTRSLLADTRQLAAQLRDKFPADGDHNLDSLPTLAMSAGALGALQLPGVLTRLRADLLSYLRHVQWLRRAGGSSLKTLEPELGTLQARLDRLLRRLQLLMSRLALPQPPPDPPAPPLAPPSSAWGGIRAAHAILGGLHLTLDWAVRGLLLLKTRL
MEASUREMENT NOTES: ELISA on coated recombinant human IL-11 (100 ng/well), scFv-Fc
# reported EC50; entries follow
PROPERTY LABEL: EC50

1) YU112-H02 (antibody) QVQLVESGGGVVQPGRSLRLSCAASGFTFSSYGMHWVRQAPGKGLEWVAVISYDGSNKYYADSVKGRFTISRDNSKNTLYLQMNSLRAEDTAVYYCAKLSGPNGVDYWGQGTLVTVSSGSASAPKLEEGEFSEARVQPVLTQPRSVSGSPGQSVTISCTGTSSDVGGYNYVSWYQQHPGKAPKVMIYDVSKRPSGVPDRFSGSKSGNTASLTISGLQAEDEADYYCCSYAGSYTWVFGGGTKLTVL    0.02 µg/mL
2) YU100-D02 (antibody) QVRLVQSGGGVVQPGRSLRLSCAASGFTFSSYGMHWVRQAPGKGLEWVAVISYDGSNKYYADSVKGRFTISRDNSKNTLYLQMNSLRAEDTAVYYCAKIGATDPLDYWGQGTLVTVSSGSASAPKLEEGEFSEARVQSALTQPRSVSGSPGQSVTISCTGTSGDVGTYNYVSWYQQHPGKAPKLMIFDVSKRPSGVPDRFSGSKSGNTASLTISGLQAEDEADYYCNSYAGSYTWVFGGGTKLTVLGQPKAAPSVTLFPPSS    0.022 µg/mL
3) YU100-G08 (antibody, human IgG1, V domains shown, Light chain shuffled human antibody; Only the variable domains are tied to the clone) VH: QVQLVQSGGGVVQPGRSLRLSCAASGFTFSSYGMHWVRQAPGKGLEWVAVISYDGSNKYYADSVKGRFTISRDNSKNTLYLQMNSLRAEDTAVYYCAKIGATDPLDYWGQGTLVTVSS VL: QSALTQPRSVSGSPGQSVTLSCTGTSSDVGGYNYVSWYQHYPGKAPKLMIFDVNERSSGVPDRFSGSKSGNTASLTISGLQAEDEADYYCCSYAGRYTWMFGGGTKVTVLG    0.028 µg/mL
4) YU100-H05 (antibody) QVQLVESGGGVVQPGRSLRLSCAASGFTFSSYGMHWVRQAPGKGLEWVAVISYDGSNKYYADSVKGRFTISRDNSKNTLYLQMNSLRAEDTAVYYCAKIGATDPLDYWGQGTLVTVSSGSASAPKLEEGEFSEARVQAVLTQPRSVSGSPGQSITISCTGTGSNVGGYNYVSWYQQHPGQAPKLMIYDVSKRPSGVPDRFSGSKSGNTASLTISGLQAEDEADYYCCSYAGTYTWVFGGGTKLTVL    0.022 µg/mL
5) YU100-E10 (antibody) QVQLVQSGGGVVQPGRSLRLSCAASGFTFSSYGMHWVRQAPGKGLEWVAVISYDGSNKYYADSVKGRFTISRDNSKNTLYLQMNSLRAEDTAVYYCAKIGATDPLDYWGQGTLVTVSSGSASAPKLEEGEFSEARVQSALTQPRSVSGSPGQSVTISCTGTSSDVGGYNYVSWYQQHPGKAPKLMIFDVSQRPSGVPDRFSASKSGNTASLTISGLQAEDEADYYCCSYAGSYTWVFGGGTKLTVL    0.033 µg/mL
